# System: Neutrophil
# assayText: Anti-inflammatory activity in human neutrophils assessed as inhibition of fMLP/CB-induced superoxide anion generation by measuring superoxide dismutase SOD-inhibitable ferricytochrome c reduction incubated for 5 mins before fMLP/CB stimulation for 3 mins by spectrophotometry
# Type: functional, cell-based
Let's look at some compounds and their measured IC50.
Please respond with the number in µg/mL and leave the unit unwritten.

Q: Tell me the measured IC50 of C=C1CCC2[C@@](C)(CO)CCC[C@]2(C)[C@H]1CC/C(C)=C/C(=O)O (some centres not stated) , please.
Ans: 7.4

Q: Okay, and C=C(C)[C@@H]1CC[C@]2(C(=O)O)CC[C@]3(C)C(CCC4[C@@]5(C)C[C@@H](O)[C@H](O)C(C)(C)C5CC[C@]43C)C12 (some centres not stated) ?
Ans: 0.8

Continue with the next compound.
Q: Tell me the measured IC50 of COc1ccc([C@H]2OC[C@@H]3C(=O)OC[C@@H]32)cc1OC , please.
Ans: 5.6

Just for reference, ChEMBL document CHEMBL4184133 is where these values come from.
